- tested-system: Induced myeloid leukemia cell differentiation protein Mcl-1 (Homo sapiens)
- assay-protocol: blockers of Bid binding to Mcl-1 – biochemical, TR-FRET, dose response (AID 1418)
- recorded-conditions: Mcl-1/Bid peptide binding, TR-FRET (europium/Dy647), 2 hr
Active and inactive are the calls of the source. The rule behind the calls is not given here.
In this exercise, the only acceptable responses are active, inactive

Worked cases, answers included:
COc1ccc(CN2CCN(c3ccccc3F)CC2)cc1O : inactive
Clc1ccc(SCCn2ccnc2)cc1 : inactive
Cc1ccc(N2C(=O)CC(Cn3nc(C)cc3C)C2=O)cc1 (stereo unspecified) : inactive
CCCCSc1cc(C)nc(N)n1 : inactive
O=C(O)CC(NC(=O)COc1ccc(Cl)cc1Cl)C(=O)O (stereo unspecified) : inactive
CC(=O)Nc1ccc(S(=O)(=O)NCc2ccccn2)cc1 : inactive
COc1ccc(CN2C(=O)c3cccnc3C2Nc2cc(Cl)c(OC)cc2OC)cc1 (stereo unspecified) : active
O=C(NC1CCCCC1)C(c1ccc2ncccc2c1)N(Cc1ccccc1)C(=O)c1ccc2c(c1)OCCO2 (stereo unspecified) : inactive
COC(=O)c1ccc2nc(Nc3nc4ccc(F)cc4s3)sc2c1 : active
CCn1c(C)cc(/C=C2\NC(=O)N(Cc3ccc(Cl)cc3)C2=O)c1C : active

Shifting focus to the compound that follows.
Exercise: Give the logged outcome of this assay for the following compound: O=C(NCc1cccnc1)c1cc2nc(-c3ccc4c(c3)OCO4)cc(C(F)(F)F)n2n1
Solution: inactive
